test system: C. neoformans apt4Δ; experiment: microbe, parasite or virus in culture; assay type: cell-based, Cryptococcus neoformans; conditions: Cryptococcus neoformans, 48 h
Please go through the items and note down their MIC.

Look up MIC for the entries below, preserving their order.
1. CC[C@H](C)C[C@H](C)CCCCCCCCC(=O)N[C@H]1C[C@@H](O)[C@@H](NCCN)NC(=O)[C@@H]2[C@@H](O)CCN2C(=O)[C@H]([C@H](O)CCN)NC(=O)[C@H]([C@H](O)[C@@H](O)c2ccc(O)cc2)NC(=O)[C@@H]2C[C@@H](O)CN2C(=O)[C@H]([C@@H](C)O)NC1=O
2. OC(Cn1cncn1)(Cn1cncn1)c1ccc(F)cc1F
3. C[C@@H]1[C@H](O)[C@@H](C)/C=C/C=C/C=C/C=C/C=C/C=C/C=C/[C@H](O[C@@H]2O[C@H](C)[C@@H](O)[C@H](N)[C@@H]2O)C[C@@H]2O[C@](O)(C[C@@H](O)C[C@@H](O)[C@H](O)CC[C@@H](O)C[C@@H](O)CC(=O)O[C@H]1C)C[C@H](O)[C@H]2C(=O)O
4. CCC(C)n1ncn(-c2ccc(N3CCN(c4ccc(OCC5COC(Cn6cncn6)(c6ccc(Cl)cc6Cl)O5)cc4)CC3)cc2)c1=O (stereo not shown)

(A)
16 µg/mL
2 µg/mL
0.25 µg/mL
0.062 µg/mL
